Entries and their pIC50 values follow.
Tested on: KYSE-150 esophageal carcinoma cell line
Test: In vitro cell-based assay: BrdU incorporation cell proliferation ELISA
Set-up: species or system human
Conditions: Homo sapiens, KYSE-150 cells, 168 hours compound incubation, read-out: Cellular IC50
pIC50: −log10 of the molar value.

compound: CC(CN)c1ccc(N(C)c2ccc(Oc3nc(O)c4ccncc4n3)cc2)cc1 (stereo not drawn) [Example 37]
pIC50: < 5.00
--
compound: CCCc1ccc(N(C)c2ccc(Oc3nc(O)c4ccncc4n3)cc2)cc1 [Example 69]
pIC50: ≥ 7.00
--
compound: Oc1nc(Oc2ccc3c(cnn3Cc3ccccc3)c2)nc2cnccc12 [Example 15]
pIC50: 5.00 to 6.00
--
compound: C[C@H](c1ccccc1)N(C)c1ccc(Oc2nc(O)c3ccncc3n2)cc1 [Example 52]
pIC50: 5.00 to 6.00
--
compound: CC(C)COc1ccc(N(C)c2ccc(Oc3nc(O)c4ccncc4n3)cc2)cc1 [Example 74]
pIC50: ≥ 7.00
--
compound: CN1CCCN(c2cccc(N(C)c3ccc(Oc4nc(O)c5ccncc5n4)cc3)c2)CC1 [Example 88]
pIC50: < 5.00
--
compound: CN(c1ccc(OCC(C)(C)C)cc1)c1ccc(Oc2nc(O)c3ccncc3n2)cc1 [Example 75]
pIC50: ≥ 7.00
--
compound: CCc1ccc(N(C)c2ccc(Oc3nc(O)c4ccncc4n3)cc2)nc1 [Example 97]
pIC50: 6.00 to 7.00
--
compound: CN(Cc1ccccc1)c1ccc(Oc2nc(O)c3ccncc3n2)cc1 [Example 6]
pIC50: ≥ 7.00
--
compound: CC(CCN(C)C)c1ccc(N(C)c2ccc(Oc3nc(O)c4ccncc4n3)cc2)cc1 (stereo not drawn) [Example 115]
pIC50: < 5.00
--
compound: Cc1ccc(N(C)c2ccc(Oc3nc(O)c4ccncc4n3)cc2)cc1F [Example 53]
pIC50: 6.00 to 7.00
--
compound: CN(c1ccc(CC2CC2)cc1)c1ccc(Oc2nc(O)c3ccncc3n2)cc1 [Example 76]
pIC50: ≥ 7.00
--
compound: COCCNCC(C)c1ccc(N(C)c2ccc(Oc3nc(O)c4ccncc4n3)cc2)cc1 (stereo not drawn) [Example 100]
pIC50: < 5.00
--
compound: CC(C)c1ccc(N(C)c2ccc(Oc3nc(O)c4ccncc4n3)cc2)cc1 [Example 85]
pIC50: ≥ 7.00
--
compound: CN1CCC(N(C)c2cccc(N(C)c3ccc(Oc4nc(O)c5ccncc5n4)cc3)c2)CC1 [Example 89]
pIC50: 5.00 to 6.00
--
compound: Oc1nc(Oc2ccc3c(ccn3CCc3ccccc3)c2)nc2cnccc12 [Example 3]
pIC50: 6.00 to 7.00
--
compound: CN(c1ccc(Oc2nc(O)c3ccncc3n2)cc1)c1ccc(OC(F)(F)F)cc1 [Example 110]
pIC50: 6.00 to 7.00
--
compound: CN(c1ccc(OCC(F)(F)F)cc1)c1ccc(Oc2nc(O)c3ccncc3n2)cc1 [Example 73]
pIC50: ≥ 7.00
--
compound: CN(c1ccc(Oc2nc(O)c3ccncc3n2)cc1)c1ccc(C(C)(C)C)cc1 [Example 92]
pIC50: ≥ 7.00
--
compound: COCC(C)c1ccc(N(C)c2ccc(Oc3nc(O)c4ccncc4n3)cc2)cc1 (stereo not drawn) [Example 29]
pIC50: 6.00 to 7.00
--
compound: Cc1cc(N2CCN(C)CC2)cc(N(C)c2ccc(Oc3nc(O)c4ccncc4n3)cc2)c1 [Example 90]
pIC50: < 5.00
--
compound: CCc1ccc(N(C)c2ccc(Oc3nc(O)c4ccncc4n3)cc2)cc1N1CCN(C)CC1 [Example 60]
pIC50: < 5.00
--
compound: CN(c1ccc(Oc2nc(O)c3ccncc3n2)cc1)c1ccc(S(C)(=O)=O)cc1 [Example 57]
pIC50: < 5.00
--
compound: CN1CCN(Cc2cccc(N(C)c3ccc(Oc4nc(O)c5ccncc5n4)cc3)c2)CC1 [Example 41]
pIC50: 5.00 to 6.00

Where do the numbers come from? From patent US10112940B2.
